- Tested on: 677734-321-R-J1-PDC complex spheroid viability;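 also: spheroids exposed to compounds for one week; 100% = vehicle DMSO treated spheroids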
- experimentalProtocol: Anticancer human tumor 677734-321-R-J1-PDC patient-derived soft tissue sarcoma cell line growth inhibition [POLQ]
- cond: second compound 1 µM; first compound 0.00316 µM; active compounds read low
viability, T/C by entry:
resultType: viability, T/C (%)

>>> measured("CC[C@@]1(O)C(=O)OCc2c1cc1n(c2=O)Cc2cc3c(CN(C)C)c(O)ccc3nc2-1 + Nc1ccc(C#CCN(C(=O)Cc2ncc(C(F)(F)F)cc2C(F)(F)F)c2ccc(F)cc2)nn1")
103
>>> measured("CCc1c2c(nc3ccc(O)cc13)-c1cc3c(c(=O)n1C2)COC(=O)[C@]3(O)CC + Cc1cccc(N(C)C(=O)C2C(O)CCN2c2nc(C)cc(C(F)(F)F)c2C#N)c1")
30.3
>>> measured("COc1cccc(OCCCN)c1-c1cc(Nc2cnc(C#N)cn2)n[nH]1 + COC1C(OC(N)=O)C(O)C(Oc2ccc3c(O)c(NC(=O)c4ccc(O)c(CC=C(C)C)c4)c(=O)oc3c2C)OC1(C)C")
102
